- testedOn: T1, human iRhom2 (inactive rhomboid protein 2, isoform 1), endogenously expressed on human cells (human, UniProt Q6PJF5 1-856)
- T1 construct: also called RHBDF2; NP_078875.4
- T1 sequence: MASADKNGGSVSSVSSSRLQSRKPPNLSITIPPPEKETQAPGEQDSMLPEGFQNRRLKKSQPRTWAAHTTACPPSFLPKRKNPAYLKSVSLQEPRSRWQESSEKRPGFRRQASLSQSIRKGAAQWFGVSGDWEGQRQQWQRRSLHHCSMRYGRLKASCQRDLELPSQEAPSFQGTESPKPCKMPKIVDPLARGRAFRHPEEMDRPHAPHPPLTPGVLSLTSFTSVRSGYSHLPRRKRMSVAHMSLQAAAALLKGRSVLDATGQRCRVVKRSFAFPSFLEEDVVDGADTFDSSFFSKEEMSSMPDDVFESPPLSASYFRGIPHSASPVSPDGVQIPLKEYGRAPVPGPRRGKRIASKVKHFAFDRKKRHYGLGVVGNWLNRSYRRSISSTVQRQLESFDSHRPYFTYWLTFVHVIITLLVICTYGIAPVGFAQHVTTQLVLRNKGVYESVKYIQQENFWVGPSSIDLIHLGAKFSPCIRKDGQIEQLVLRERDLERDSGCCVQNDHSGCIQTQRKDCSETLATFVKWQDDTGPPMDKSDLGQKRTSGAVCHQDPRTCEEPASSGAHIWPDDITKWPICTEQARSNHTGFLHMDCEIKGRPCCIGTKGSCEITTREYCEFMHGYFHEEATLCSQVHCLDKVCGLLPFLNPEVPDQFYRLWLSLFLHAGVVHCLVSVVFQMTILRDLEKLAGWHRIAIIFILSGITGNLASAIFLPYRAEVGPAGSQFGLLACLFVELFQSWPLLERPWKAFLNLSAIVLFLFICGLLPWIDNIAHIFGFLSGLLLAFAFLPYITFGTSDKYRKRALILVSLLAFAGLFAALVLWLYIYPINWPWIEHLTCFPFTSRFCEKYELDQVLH
- procedureDetails: indirect FACS scatchard analysis on THP-1 cells (endogenous iRhom2)
Some binders, each annotated with its measured Kd.
Please state the value followed by its unit.

antibody 43 (antibody, V domains shown, Mouse IgG, kappa light chain; also called clone #43) VH: QVALKESGPGILQPSQTLSLTCSFSGFSLSTFGMGVGWIRQSSGKGLEWLANIWWDDDKYYNPALKSRLTISKDASKNQAFLKIANVDTADTATYYCARIGNYGSNYWYFDVWGTGTTVTVSS VL: QIVLTQSPAIMSASPGERVTMTCSANSRISYMYWYQQKPGSSPRLLIYDTSNLASGVPVRFSGSGSGTSYSLTISRMEAEDAATYNCQQWSSYPLTFGAGTKLELK = 4.55 nM

Which Kd is reported for this binder? antibody 42 (antibody, V domains shown, Mouse IgG, kappa light chain; also called clone #42; m42) VH: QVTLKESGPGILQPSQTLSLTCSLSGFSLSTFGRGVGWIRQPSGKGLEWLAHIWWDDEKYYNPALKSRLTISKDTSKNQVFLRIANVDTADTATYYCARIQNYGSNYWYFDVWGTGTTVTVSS VL: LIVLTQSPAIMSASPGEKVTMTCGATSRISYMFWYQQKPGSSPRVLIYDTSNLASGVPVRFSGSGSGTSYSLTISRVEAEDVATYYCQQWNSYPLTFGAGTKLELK
1.9 nM

This collection of values is drawn from patent US20240174744A1.
